Below, each entry is listed alongside its reported melting point.

{"columns": ["compound", "melting point"],
 "data": [
  ["CSc1sc(C(N)=O)c2c1-c1nc(C)sc1CC2", "269 to 270 °C"],
  ["Cc1c(C(F)(F)F)noc1NS(=O)(=O)c1ccccc1", "99.5 to 100 °C"]
]}

Please look up its melting point: CCCCNc1nc(C=O)c(C#N)cc1C(=O)OCC
81 to 83 °C

Please look up its melting point: CN(CCN(C)S(=O)(=O)c1ccc(F)cc1)C(=O)c1ccc(Nc2ccnc3cc(C(F)(F)F)ccc23)cc1
191 to 193 °C

Please look up its melting point: Cc1ncc(O)c(=O)[nH]1
> 300 °C

Please look up its melting point: Cc1cccc(NC(=N)N(C)C)c1-c1ccccc1
181 to 182 °C

Please look up its melting point: OCc1csc(N(c2ccccc2)c2ccccc2)n1
136 to 138 °C

###

Below, each entry is listed alongside its reported melting point.

{"columns": ["compound", "value"],
 "data": [
  ["O=C(O)c1ccccc1CSc1ccc(Br)cc1", "139 to 140 °C"],
  ["CC(C)Oc1cccc(CC(=O)OCc2c(-c3ccccc3)c3cc(Cl)ccc3c(=O)n2C)c1", "130 to 132 °C"],
  ["Cc1ccnc(C(=O)c2[nH]c3ccc(C(F)(F)F)cc3c2CC(=O)O)c1", "218 to 225 °C"],
  ["CCOC(=O)Cc1csc(NC(=S)Nc2cc(Cl)ccc2C)n1", "177 to 179 °C"],
  ["COc1ccc(CSc2cc(OC)c(OC)c(OC)c2)cc1", "65 to 67 °C"],
  ["NC(=O)c1ccc(Cc2ccccc2)cn1", "193 to 196 °C"],
  ["CC(Cc1ccc(OCc2cccc(C(=O)O)c2)cc1)NCCC(c1ccccc1)c1ccccc1 (stereo not given)", "209 to 212 °C"],
  ["CNc1nc(C(C)c2ccc(-c3ccccc3)c(F)c2)c(C(=O)O)s1 (stereo not given)", "133 to 134 °C"],
  ["CC(C)Cn1nc(-c2ccccc2)c(-c2ccccc2)c1CCl", "92 °C"]
]}

Please examine the following record next.
Please look up its melting point: COc1ccc(NC(=O)c2ccc(F)c(F)c2)cc1NC(=S)Nc1ccc(C(=O)O)cc1
200 to 203 °C

###

Below, each entry is listed alongside its reported melting point.

Worked set:
{"columns": ["compound", "melting point"],
 "data": [
  ["CCN1CC(=O)N(c2cc(Cl)ccc2OC)C1=S", "171 to 174 °C"],
  ["CCCc1nn(-c2ccc(C(F)(F)F)cn2)cc1CCCCOc1cc(CCC(=O)O)n(-c2ccccc2)n1", "123 to 124 °C"],
  ["O=[N+]([O-])c1ccc(Cl)cc1Sc1cccc2cnccc12", "151 to 153 °C"],
  ["CCOc1cc(C(CS(C)(=O)=O)N2C(=O)c3cccc(Cc4ccc[nH]4)c3C2=O)ccc1OC (stereo not given)", "80 to 82 °C"],
  ["N#Cc1ccc(-c2cn(-c3ccc(OC(F)(F)F)cc3)cn2)cc1", "155 °C"],
  ["COc1ccc(NCCCOc2ccc3ccccc3c2)cc1", "110 °C"],
  ["Cn1cnnc1C(O)(c1ccc(Cl)cc1)c1ccc2c(c1)c(-c1cccc(Cl)c1)cc(=O)n2Cc1ccc(C#N)cc1 (stereo not given)", "185 °C"],
  ["COc1cc2c(cc1OC)-c1n[nH]c(Nc3cc(Cl)cc(Cl)c3)c1C2", "> 270 °C"]
]}

Please look up its melting point: Cc1c(SCCN(C)Cc2ccccc2)ccnc1CSc1nc2ccccc2[nH]1
110 to 112 °C

Please look up its melting point: Cc1ncccc1-c1cncc(OC2SCC(O)C(O)C2O)c1 (stereo not given)
204 to 207 °C

Please look up its melting point: CCCCCCCN(CCc1ccc(OC(C)(C)C(=O)O)cc1)C(=O)Nc1ccc(OC)cc1OC
95 to 96 °C

Please look up its melting point: O=C(NCc1cccnc1)c1ccc2n1Cc1ccccc1N(C(=O)c1ccc(-c3ncccn3)cc1)C2
234 to 236 °C

Please look up its melting point: CC(C)(C#N)c1c(Cl)cc(N)cc1Cl
208 °C

Please look up its melting point: COc1ccc(CCCOCCCCCNCC(O)c2cc(Cl)c(N)c(Cl)c2)cc1 (stereo not given)
63 to 64 °C

Please look up its melting point: Cc1ccc(NC(=O)C(C)(C)CCCOc2cc(C)ccc2C)c(C)c1
80 to 82 °C
